Provenance of the data: the RNAGym collection of RNA variant scans (doi:10.1093/molbev/msab373)

Known reverse-splicing fitness of a selection of variants
B1: Azoarcus group I ribozyme (parent)
chain: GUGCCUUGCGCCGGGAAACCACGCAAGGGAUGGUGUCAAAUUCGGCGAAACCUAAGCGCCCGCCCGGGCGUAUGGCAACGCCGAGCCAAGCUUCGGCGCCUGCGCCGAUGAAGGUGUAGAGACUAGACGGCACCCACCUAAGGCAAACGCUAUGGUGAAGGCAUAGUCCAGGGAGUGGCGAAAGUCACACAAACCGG

# Variants of: B1
# method.notes: reverse-splicing fitness (ratio to wild type); higher = more active; in vitro selection; Mg2+ level not given
measured.parameter: reverse-splicing fitness

[
  {
    "mut": "A111C A120C C150A C169A",
    "test.value": 0.00999
  },
  {
    "mut": "C82A A111G A120G A145C C150G U176C",
    "test.value": 0.0087
  },
  {
    "mut": "C82U A111C A120C C150G C169G U176A",
    "test.value": 0.00777
  },
  {
    "mut": "C82A A111G A120C A145C C169U U176C",
    "test.value": 0.0138
  },
  {
    "mut": "C82G A111U A120U A145G C150U C169U",
    "test.value": 0.00655
  },
  {
    "mut": "C82A A111G A120G C150G C169U U176A",
    "test.value": 0.0124
  },
  {
    "mut": "C82U A111U A120C A145G C150U C169G U176C",
    "test.value": 0.016
  },
  {
    "mut": "C82U A111G A120C A145G C150G C169A U176A",
    "test.value": 0.0113
  },
  {
    "mut": "A111U A120U A145G C150A",
    "test.value": 0.0883
  },
  {
    "mut": "A111C A120G C169G U176C",
    "test.value": 0.0444
  },
  {
    "mut": "C82A A111U A120U A145U C150A C169U U176A",
    "test.value": 0.00317
  },
  {
    "mut": "C82A A111G A120C A145C C150G C169A U176A",
    "test.value": 0.00906
  },
  {
    "mut": "C82U A120C A145U C150U U176C",
    "test.value": 0.0537
  },
  {
    "mut": "C82G A111G A120G C169A",
    "test.value": 0.0124
  },
  {
    "mut": "A120C A145G C169U U176C",
    "test.value": 0.185
  },
  {
    "mut": "C82U A111C A120C A145G C150G C169G U176C",
    "test.value": 0.011
  },
  {
    "mut": "C82A A111C A145C C169U",
    "test.value": 0.0124
  },
  {
    "mut": "A111U A120G A145C C150A C169U U176G",
    "test.value": 0.00521
  },
  {
    "mut": "C82G A111U A120U A145G C150U C169A U176A",
    "test.value": 0.0082
  },
  {
    "mut": "A120C A145U C150U C169A",
    "test.value": 0.0252
  },
  {
    "mut": "C82A A120G A145G C150U C169A U176A",
    "test.value": 0.016
  },
  {
    "mut": "C82A A111G A120G C169G U176A",
    "test.value": 0.0226
  },
  {
    "mut": "A111U A120U A145C C150G C169U U176G",
    "test.value": 0.00228
  },
  {
    "mut": "A111C A120U A145G C169G U176C",
    "test.value": 0.0098
  },
  {
    "mut": "C82G C150G C169A U176C",
    "test.value": 0.00997
  },
  {
    "mut": "A111U A120G A145G C150U U176A",
    "test.value": 0.0295
  },
  {
    "mut": "A111C A145C C150G C169U U176G",
    "test.value": 0.00607
  },
  {
    "mut": "C82U A111C A120G C150G C169G",
    "test.value": 0.00667
  },
  {
    "mut": "A111C A145C C150U C169A U176C",
    "test.value": 0.00847
  },
  {
    "mut": "C82U A145U C150U C169U",
    "test.value": 0.0118
  },
  {
    "mut": "A111C A145U C150U C169G",
    "test.value": 0.0433
  },
  {
    "mut": "C82G A111G A120U A145G C169G U176A",
    "test.value": 0.00491
  },
  {
    "mut": "C82G A111U C150U C169A U176A",
    "test.value": 0.0188
  },
  {
    "mut": "A111G A145U C150A C169G U176G",
    "test.value": 0.00512
  },
  {
    "mut": "C82G A111U A120G A145U C150G C169U U176C",
    "test.value": 0.013
  },
  {
    "mut": "A111U A120C A145C",
    "test.value": 0.537
  },
  {
    "mut": "A111U A145C C150A C169U U176A",
    "test.value": 0.0157
  },
  {
    "mut": "C82A A120C A145U C150A C169A U176C",
    "test.value": 0.0156
  },
  {
    "mut": "C82G A111G A120G A145G C150U C169A U176G",
    "test.value": 0.00616
  },
  {
    "mut": "C82G A111C A120U A145C C150A C169G U176A",
    "test.value": 0.00319
  },
  {
    "mut": "C82G A111G A145C",
    "test.value": 0.392
  },
  {
    "mut": "C82A A111U A120G A145G C150G C169G U176G",
    "test.value": 0.00619
  },
  {
    "mut": "C82G A111U A145C C150U",
    "test.value": 0.0722
  },
  {
    "mut": "C82U A111C A120G A145U C150A",
    "test.value": 0.00775
  },
  {
    "mut": "C82A A111U A120C A145C C150A C169U U176G",
    "test.value": 0.00621
  },
  {
    "mut": "C82A A111C A120G A145U C150U C169U U176G",
    "test.value": 0.00648
  }
]
